assay-overview: Metabolic stability in human liver microsomes assessed as clearance at 1 uM measured upto 90 mins by LC-MS/MS analysis
Assay type: ADME, Microsome
condition-label: read-out: CLH
Decision: CLint scaled at 1 µM >= 8 mL/min/kg yields T, all other cases yield F.

{"molecule": "O=C(Nc1cccc(-c2nncn2CC2CC2)c1)c1cc2c(cc1F)OCc1cncn1-2", "class-name": "T"}
{"molecule": "CC(C)n1cnnc1-c1cccc(NC(=O)c2cc3c(cc2F)CCC(=O)N3)c1", "class-name": "F"}
{"molecule": "CC(C)n1cnnc1-c1cccc(NC(=O)c2cc3c(cc2F)CCC(=O)N3)n1", "class-name": "F"}
{"molecule": "CC(C)n1cnnc1-c1cccc(NC(=O)c2cc3c(cc2F)CCCC(=O)N3)n1", "class-name": "F"}
{"molecule": "CC(C)n1cnnc1-c1cccc(NC(=O)c2cc3c(cc2F)OC(C)(C)C(=O)N3C)n1", "class-name": "F"}

Alright, here's another molecule for you.
# bool: CLint scaled at 1 µM of O=C(Nc1cccc(-c2nncn2C2CCCC2)n1)c1cc2c(cc1F)OCc1cncn1-2 >= 8 mL/min/kg T

* * *

assay-overview: Metabolic stability in rat liver microsomes assessed as clearance at 1 uM measured upto 90 mins by LC-MS/MS analysis
Type: ADME, Microsome
condition-label: read-out: CLH
Just so you know, the groups by CLint scaled at 1 µM go like this: c1 = under 10 mL/min/kg, c2 = from 10 mL/min/kg up to 30 mL/min/kg, c3 = 30 mL/min/kg and over

{"compound": "CC(C)n1cnnc1-c1cccc(NC(=O)c2cc3c(cc2F)C(C)(C)CC(=O)N3C)n1", "class-name": "c2"}
{"compound": "CC(C)n1cnnc1-c1cccc(NC(=O)c2cc3c(cc2F)CCCC(=O)N3)c1", "class-name": "c1"}
{"compound": "CC(CO)n1cnnc1-c1cccc(NC(=O)c2cc3c(cc2F)CCCC(=O)N3C)n1 (configuration not stated)", "class-name": "c2"}
{"compound": "CC(C)n1cnnc1-c1cccc(NC(=O)c2cc3c(cc2F)CCCC(=O)N3C)c1", "class-name": "c2"}
{"compound": "O=C1COc2cc(F)c(C(=O)Nc3cccc(-c4nncn4-c4ccccc4)n3)cc2N1", "class-name": "c1"}

Categorize the following entry: CC(C)n1cnnc1-c1cccc(NC(=O)c2cc3c(cc2F)CCC(=O)N3)n1 c2

Now consider CC(C)n1cnnc1-c1cccc(NC(=O)c2cc3c(cc2F)CCC(=O)N3C)n1 . c3

Also CC(CO)n1cnnc1-c1cccc(NC(=O)c2cc3c(cc2F)CCCC(=O)N3)n1 (configuration not stated) ? c1

Follow-up item: CC(C)n1cnnc1-c1cccc(NC(=O)c2cc3c(cc2F)OCc2cncn2-3)c1 c3

What would you report for CN1C(=O)CCCc2cc(F)c(C(=O)Nc3cccc(-c4nncn4C4CC4)n3)cc21 ? c2

* * *

assay-overview: Half life in Sprague-Dawley rat at 1 mg/kg, iv measured upto 24 hrs by LC-MS/MS analysis
Format: ADME, organism-based
condition-label: in vivo
property-name: log10(half-life) (log10 of the value in min)
For clarity, the numbers are log10 values of half-life expressed in min.

Returns the measured log10(half-life) for the input molecule. Input: CC(C)n1cnnc1-c1cccc(NC(=O)c2cc3c(cc2F)CCCC(=O)N3)n1 1.87

Field entry: O=C(Nc1cccc(-c2nncn2CC2CC2)c1)c1cc2c(cc1F)OCc1cncn1-2 1.52

Consider next the molecule CC(C)n1cnnc1-c1cccc(NC(=O)c2cc3c(cc2F)OCC(=O)N3C)n1 in the same way. 1.99

Now give it for CC(C)n1cnnc1-c1cccc(NC(=O)c2cc3c(cc2F)OCC(=O)N3)n1 too. 1.82

Next entry: O=C(Nc1cccc(-c2nncn2CC2CC2)n1)c1cc2c(cc1F)OCc1cncn1-2 1.65

* * *

assay-overview: Apparent […] clearance in Sprague-Dawley rat at 1 mg/kg, iv measured upto 24 hrs by LC-MS/MS analysis
Type: ADME, organism-based
condition-label: in vivo
property-name: CL/F (mL/min/kg)
Field: numeric (mL/min/kg). Do not append units.

{"molecule": "CN1C(=O)CCCc2cc(F)c(C(=O)Nc3cccc(-c4nncn4C4CC4)n3)cc21", "readout-units": "mL/min/kg", "CL/F": 12.2}
{"molecule": "CC(C)n1cnnc1-c1cccc(NC(=O)c2cc3c(cc2F)CCCC(=O)N3C)n1", "readout-units": "mL/min/kg", "CL/F": 43.7}

GET /values?readout=CL/F&item= CC(C)n1cnnc1-c1cccc(NC(=O)c2cc3c(cc2F)OCC(=O)N3C)n1 7.5

Similarly, O=C(Nc1cccc(-c2nncn2CC2CC2)c1)c1cc2c(cc1F)OCc1cncn1-2 ? 38.5

Try CC(C)n1cnnc1-c1cccc(NC(=O)c2cc3c(cc2F)CCCC(=O)N3)n1 next. 12.8

Next up: CC(C)n1cnnc1-c1cccc(NC(=O)c2cc3c(cc2F)OCC(=O)N3)n1 10.2

What about this molecule? CC(C)n1cnnc1-c1cccc(NC(=O)c2cc3c(cc2F)CCC(=O)N3)n1 13.2

Thanks! And CC(C)n1cnnc1-c1cccc(NC(=O)c2cc3c(cc2F)CCC(=O)N3)c1 ? 74.5

Proceed to CC(C)n1cnnc1-c1cccc(NC(=O)c2cc3c(cc2F)CCCC(=O)N3C)c1 36.8

* * *

assay-overview: Apparent […] clearance in Sprague-Dawley rat at 1 mg/kg, iv measured upto 24 hrs by LC-MS/MS analysis
Format: ADME, organism-based
condition-label: in vivo
property-name: CL/F (mL/min/kg)
Give your result in mL/min/kg as a bare value.

Below, each entry is followed by its recorded CL/F result.
{"compound": "CC(CO)n1cnnc1-c1cccc(NC(=O)c2cc3c(cc2F)OCC(=O)N3)n1 (stereo not given)", "CL/F / mL/min/kg": 72.5}
{"compound": "O=C(Nc1cccc(-c2nncn2CC2CC2)n1)c1cc2c(cc1F)OCc1cncn1-2", "CL/F / mL/min/kg": 23.7}
{"compound": "O=C1COc2cc(F)c(C(=O)Nc3cccc(-c4nncn4-c4ccccc4)n3)cc2N1", "CL/F / mL/min/kg": 3.33}
{"compound": "CC(C)n1cnnc1-c1cccc(NC(=O)c2cc3c(cc2F)C(C)(C)CC(=O)N3C)n1", "CL/F / mL/min/kg": 20.8}
{"compound": "O=C1COc2cc(F)c(C(=O)Nc3cccc(-c4nncn4C4CCCC4)n3)cc2N1", "CL/F / mL/min/kg": 18.2}
{"compound": "CC(C)n1cnnc1-c1cccc(NC(=O)c2cc3c(cc2F)C(C)(C)CC(=O)N3)n1", "CL/F / mL/min/kg": 13.8}
{"compound": "CC(C)n1cnnc1-c1cccc(NC(=O)c2cc3c(cc2F)OCc2cncn2-3)c1", "CL/F / mL/min/kg": 50.3}
{"compound": "CC(C)n1cnnc1-c1cccc(NC(=O)c2cc3c(cc2F)CCCC(=O)N3)c1", "CL/F / mL/min/kg": 52}

What value of CL/F has been reported for the following compound? CC(C)n1cnnc1-c1cccc(NC(=O)c2cc3c(cc2F)CCC(=O)N3C)n1 24.8

Please give the result for O=C1CCCc2cc(F)c(C(=O)Nc3cccc(-c4nncn4C4CC4)n3)cc2N1 too. 14.2

* * *

assay-overview: Half life in Sprague-Dawley rat at 5 mg/kg, po measured upto 24 hrs by LC-MS/MS analysis
Type: ADME, organism-based
condition-label: in vivo
property-name: half-life (h)
Please respond with the number in h and leave the unit unwritten.

Would you please look over these solved cases?
{"compound": "CC(C)n1cnnc1-c1cccc(NC(=O)c2cc3c(cc2F)OCc2cncn2-3)c1", "obs-value": 1.13}
{"compound": "CC(C)n1cnnc1-c1cccc(NC(=O)c2cc3c(cc2F)CCCC(=O)N3)c1", "obs-value": 1.84}
{"compound": "CC(C)n1cnnc1-c1cccc(NC(=O)c2cc3c(cc2F)OCC(=O)N3C)n1", "obs-value": 2.11}
{"compound": "CC(C)n1cnnc1-c1cccc(NC(=O)c2cc3c(cc2F)OCc2cncn2-3)n1", "obs-value": 1.1}
{"compound": "O=C(Nc1cccc(-c2nncn2CC2CC2)c1)c1cc2c(cc1F)OCc1cncn1-2", "obs-value": 0.97}
{"compound": "CC(C)n1cnnc1-c1cccc(NC(=O)c2cc3c(cc2F)CCCC(=O)N3C)n1", "obs-value": 2.37}
{"compound": "CC(C)n1cnnc1-c1cccc(NC(=O)c2cc3c(cc2F)CCCC(=O)N3)n1", "obs-value": 1.63}
{"compound": "CC(C)n1cnnc1-c1cccc(NC(=O)c2cc3c(cc2F)C(C)(C)CC(=O)N3C)n1", "obs-value": 5.02}

# lookup: half-life of CC(CO)n1cnnc1-c1cccc(NC(=O)c2cc3c(cc2F)CCCC(=O)N3C)n1 (stereo unspecified) 1.51

What about CC(C)n1cnnc1-c1cccc(NC(=O)c2cc3c(cc2F)CCC(=O)N3)c1 ? 1.79

Queued: O=C1CCCc2cc(F)c(C(=O)Nc3cccc(-c4nncn4C4CC4)n3)cc2N1 3.82

Item: CC(C)n1cnnc1-c1cccc(NC(=O)c2cc3c(cc2F)C(C)(C)CC(=O)N3)n1 2.03

Query CC(C)n1cnnc1-c1cccc(NC(=O)c2cc3c(cc2F)OCC(=O)N3)n1 next 1.86

Values were extracted from ChEMBL document CHEMBL5344477.
